# Test system: Streptococcus pneumoniae
# assaySummary: Antimicrobial activity against inducible macrolide, lincosamide, streptogramin-resistant Streptococcus pneumoniae 134 GRM
# Format: functional
propertyLabel: MIC

structureNotation	result
CC[C@H]1OC(=O)[C@H](C)[C@@H](O[C@H]2C[C@@](C)(OC)[C@@H](OC(=O)CCNCCNc3cc4c(cc3F)c(=O)c(C(=O)O)cn4C3CC3)[C@H](C)O2)[C@H](C)[C@@H](O[C@@H]2O[C@H](C)C[C@H](N(C)C)[C@H]2O)[C@](C)(OC)C[C@@H](C)NC(=O)[C@H](C)[C@@H](O)[C@]1(C)O	< 0.13 µg/mL
CC[C@H]1OC(=O)[C@H](C)[C@@H](O[C@H]2C[C@@](C)(OC)[C@@H](OC(=O)CCN3CCN(c4cc5c(cc4F)c(=O)ccn5C4CC4)CC3)[C@H](C)O2)[C@H](C)[C@@H](O[C@@H]2O[C@H](C)C[C@H](N(C)C)[C@H]2O)[C@](C)(O)C[C@@H](C)NC(=O)[C@H](C)[C@@H](O)[C@]1(C)O	> 32 µg/mL
CC[C@H]1OC(=O)[C@H](C)[C@@H](O[C@H]2C[C@@](C)(OC)[C@@H](OC(=O)CCN3CCN(c4cc5c(cc4F)c(=O)ccn5C4CC4)CC3)[C@H](C)O2)[C@H](C)[C@@H](O[C@@H]2O[C@H](C)C[C@H](N(C)C)[C@H]2O)[C@](C)(OC)C[C@@H](C)NC(=O)[C@H](C)[C@@H](O)[C@]1(C)O	> 64 µg/mL
CC[C@H]1OC(=O)[C@H](C)C(=O)[C@H](C)[C@@H](O[C@@H]2O[C@H](C)C[C@H](N(C)C)[C@H]2O)[C@](C)(OC)C[C@@H](C)C(=O)[C@H](C)[C@H]2N(CCCCn3cnc(-c4cccnc4)c3)C(=O)O[C@]12C	0.25 µg/mL
NCCNc1cc2c(cc1F)c(=O)c(C(=O)O)cn2C1CC1	> 64 µg/mL
CC[C@H]1OC(=O)[C@H](C)[C@@H](O[C@H]2C[C@@](C)(OC)[C@@H](O)[C@H](C)O2)[C@H](C)[C@@H](O[C@@H]2O[C@H](C)C[C@H](N(C)C)[C@H]2O)[C@](C)(O)C[C@@H](C)CN(C)[C@H](C)[C@@H](O)[C@]1(C)O	> 64 µg/mL
CC[C@H]1OC(=O)[C@H](C)[C@@H](O[C@H]2C[C@@](C)(OC)[C@@H](O)[C@H](C)O2)[C@H](C)[C@@H](O[C@@H]2O[C@H](C)C[C@H](N(C)C)[C@H]2O)[C@](C)(OC)C[C@@H](C)NC(=O)[C@H](C)[C@@H](O)[C@]1(C)O	> 64 µg/mL
CC[C@H]1OC(=O)[C@H](C)[C@@H](O[C@H]2C[C@@](C)(OC)[C@@H](O)[C@H](C)O2)[C@H](C)[C@@H](O[C@@H]2O[C@H](C)C[C@H](N(C)C)[C@H]2O)[C@](C)(O)C[C@@H](C)NC(=O)[C@H](C)[C@@H](O)[C@]1(C)O	> 64 µg/mL
CC[C@H]1OC(=O)[C@H](C)[C@@H](O[C@H]2C[C@@](C)(OC)[C@@H](OC(=O)CCNCCNc3cc4c(cc3F)c(=O)c(C(=O)O)cn4C3CC3)[C@H](C)O2)[C@H](C)[C@@H](O[C@@H]2O[C@H](C)C[C@H](N(C)C)[C@H]2O)[C@](C)(O)C[C@@H](C)NC(=O)[C@H](C)[C@@H](O)[C@]1(C)O	< 0.13 µg/mL

* * *

# Tested on: Streptococcus pneumoniae
# assaySummary: Antimicrobial activity against macrolide-resistant Streptococcus pneumoniae Ci137
# Type: functional

structureNotation	MIC
CC[C@H]1OC(=O)[C@H](C)[C@@H](O[C@H]2C[C@@](C)(OC)[C@@H](OC(=O)CCNCC(=O)Nc3ccc([N+](=O)[O-])cc3)[C@H](C)O2)[C@H](C)[C@@H](O[C@@H]2O[C@H](C)C[C@H](N(C)C)[C@H]2O)[C@](C)(O)C[C@@H](C)NC(=O)[C@H](C)[C@@H](O)[C@]1(C)O	4 µg/mL
CC[C@H]1OC(=O)[C@H](C)[C@@H](O[C@H]2C[C@@](C)(OC)[C@@H](OC(=O)CCNCCNc3cc4c(cc3F)c(=O)c(C(=O)O)cn4C3CC3)[C@H](C)O2)[C@H](C)[C@@H](O[C@@H]2O[C@H](C)C[C@H](N(C)C)[C@H]2O)[C@](C)(O)C[C@@H](C)NC(=O)[C@H](C)[C@@H](O)[C@]1(C)O	< 0.13 µg/mL
CC[C@H]1OC(=O)[C@H](C)[C@@H](O[C@H]2C[C@@](C)(OC)[C@@H](O)[C@H](C)O2)[C@H](C)[C@@H](O[C@@H]2O[C@H](C)C[C@H](N(C)C)[C@H]2O)[C@](C)(OC)C[C@@H](C)NC(=O)[C@H](C)[C@@H](O)[C@]1(C)O	16 µg/mL

* * *

# Test system: Streptococcus pneumoniae
# assaySummary: Antimicrobial activity against macrolide-resistant Streptococcus pneumoniae Ci137
# Format: functional
Entries and their measured MIC follow.

compound	MIC [µg/mL]
CC[C@H]1OC(=O)[C@H](C)[C@@H](O[C@H]2C[C@@](C)(OC)[C@@H](O)[C@H](C)O2)[C@H](C)[C@@H](O[C@@H]2O[C@H](C)C[C@H](N(C)C)[C@H]2O)[C@](C)(O)C[C@@H](C)CN(C)[C@H](C)[C@@H](O)[C@]1(C)O [AZITHROMYCIN]	8
CC[C@H]1OC(=O)[C@H](C)C(=O)[C@H](C)[C@@H](O[C@@H]2O[C@H](C)C[C@H](N(C)C)[C@H]2O)[C@](C)(OC)C[C@@H](C)C(=O)[C@H](C)[C@H]2N(CCCCn3cnc(-c4cccnc4)c3)C(=O)O[C@]12C [TELITHROMYCIN]	0.25

* * *

# Tested on: Streptococcus pyogenes
# assaySummary: Antimicrobial activity against macrolide-sensitive Streptococcus pyogenes 3665
# Type: functional
propertyLabel: MIC

structureNotation	result
CC[C@H]1OC(=O)[C@H](C)[C@@H](O[C@H]2C[C@@](C)(OC)[C@@H](OC(=O)CCNCC(=O)Nc3cccc4ncccc34)[C@H](C)O2)[C@H](C)[C@@H](O[C@@H]2O[C@H](C)C[C@H](N(C)C)[C@H]2O)[C@](C)(OC)C[C@@H](C)NC(=O)[C@H](C)[C@@H](O)[C@]1(C)O	0.25 µg/mL
CC[C@H]1OC(=O)[C@H](C)[C@@H](O[C@H]2C[C@@](C)(OC)[C@@H](O)[C@H](C)O2)[C@H](C)[C@@H](O[C@@H]2O[C@H](C)C[C@H](N(C)C)[C@H]2O)[C@](C)(OC)C[C@@H](C)NC(=O)[C@H](C)[C@@H](O)[C@]1(C)O	< 0.13 µg/mL
CC[C@H]1OC(=O)[C@H](C)[C@@H](O[C@H]2C[C@@](C)(OC)[C@@H](O)[C@H](C)O2)[C@H](C)[C@@H](O[C@@H]2O[C@H](C)C[C@H](N(C)C)[C@H]2O)[C@](C)(O)C[C@@H](C)CN(C)[C@H](C)[C@@H](O)[C@]1(C)O	< 0.13 µg/mL

* * *

# Test system: Streptococcus pneumoniae
# assaySummary: Antimicrobial activity against macrolide-resistant Streptococcus pneumoniae Ci137
# Type: functional

structureNotation	target	readoutUnits	inequalityOperator	MIC
CC[C@H]1OC(=O)[C@H](C)[C@@H](O[C@H]2C[C@@](C)(OC)[C@@H](OC(=O)CCN3CCN(c4cc5c(cc4F)c(=O)c(C(=O)O)cn5C4CC4)CC3)[C@H](C)O2)[C@H](C)[C@@H](O[C@@H]2O[C@H](C)C[C@H](N(C)C)[C@H]2O)[C@](C)(OC)C[C@@H](C)NC(=O)[C@H](C)[C@@H](O)[C@]1(C)O	Streptococcus pneumoniae	µg/mL	<	0.13
CC[C@H]1OC(=O)[C@H](C)[C@@H](O[C@H]2C[C@@](C)(OC)[C@@H](OC(=O)CCN3CCN(c4ccc([N+](=O)[O-])cc4)CC3)[C@H](C)O2)[C@H](C)[C@@H](O[C@@H]2O[C@H](C)C[C@H](N(C)C)[C@H]2O)[C@](C)(OC)C[C@@H](C)NC(=O)[C@H](C)[C@@H](O)[C@]1(C)O	Streptococcus pneumoniae	µg/mL	=	1
CC[C@H]1OC(=O)[C@H](C)[C@@H](O[C@H]2C[C@@](C)(OC)[C@@H](OC(=O)CCN[C@@H](C)C(=O)Nc3ccc4ccccc4c3)[C@H](C)O2)[C@H](C)[C@@H](O[C@@H]2O[C@H](C)C[C@H](N(C)C)[C@H]2O)[C@](C)(O)C[C@@H](C)NC(=O)[C@H](C)[C@@H](O)[C@]1(C)O	Streptococcus pneumoniae	µg/mL	=	0.5

// provenance: ChEMBL document CHEMBL1155520
